- System: LOC_OS02G14120-cb001;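 note: purified Escherichia coli-expressed rice kinase domain construct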
- assay_overview: thermal shift delta Tm vs DMSO control; higher = stronger stabilization (binding)
- test_parameters: 12.5 µM; protein concentration 2 µM
Measured thermal shift delta Tm by item
Number in °C, nothing else.

Example cases with answers are listed next.
compound	value_units	thermal shift delta Tm
N#CC1(c2ccc(NC(=O)c3cccnc3NCc3ccncc3)cc2)CCCC1 [Apatinib]	°C	0.6
CNS(=O)(=O)C[C@H]1CC[C@H](N(C)c2[nH]cnc3nccc2-3)CC1 [Oclacitinib]	°C	4.19
Cn1nccc1Nc1nccc(-c2ccn([C@H](CO)c3ccc(Cl)c(F)c3)c(=O)c2)n1	°C	0.71
O=c1cc(N2CCOCC2)oc2c1ccc1ccccc12	°C	1.47
Cc1cc(CN2CCN(c3c(Br)cnc4nc(-c5ccc(N6CCN(C)CC6)cc5)[nH]c34)CC2)no1	°C	4.66

Documented thermal shift delta Tm of C=CC(=O)Nc1cccc(C)c1Nc1ncc2cc(-c3c(Cl)c(OC)cc(OC)c3Cl)ccc2n1 : 1.59

thermal shift delta Tm for COCC(=O)NC/C=C/c1ccc2ncnc(Nc3ccc(Oc4ccc(C)nc4)c(C)c3)c2c1 is -0.57

Lab note: Cn1c(=O)c(F)c(Nc2ccc(I)cc2F)c2c(=O)n(C[C@@H](O)CO)cnc21 gave thermal shift delta Tm of 0.98

For this compound ( Cc1c[nH]c(/C=C2\C(=O)Nc3ccccc32)c1CCC(=O)O ), measured thermal shift delta Tm is 1.56

Quick note, thermal shift delta Tm for O=C(/C=C/c1ccc(O)c(O)c1)c1ccc(O)cc1O [Butein] landed at 4.14

# thermal shift delta Tm of Cc1ccc2nc(NCCN)c3ncc(C)n3c2c1 = 0.86

In plain terms, NC1(Cc2ccc(Cl)cc2)CCN(c2ncnc3[nH]ccc23)CC1 has a documented thermal shift delta Tm of 1.88

So for C[C@@H]1COCCN1c1cc(=O)n2c(n1)N(Cc1cncc(Cl)c1)[C@H](C(F)(F)F)CC2 , the logged thermal shift delta Tm turned out to be 0.82

In plain terms, Cc1ccc(CNc2ncnc3ccc(-c4ccc(CO)o4)cc23)o1 has a documented thermal shift delta Tm of 3.01

The recorded thermal shift delta Tm for C[C@H](Nc1ncnc2[nH]cnc12)c1cc2ccc(F)cc2nc1-c1ccccn1 is 0.28

Form field thermal shift delta Tm, entry O=C(O)c1ccc(-c2c[nH]c3ncc(-c4ccccc4)cc23)cc1C1CCCC1 : 10.7

thermal shift delta Tm in this record for N#C/C(=C(/N)Sc1ccc(N)cc1)c1ccccc1C(F)(F)F : -0.1

Cited source for all entries: the supplement of paper PMC9694430
